molecular target: isolated recombinant JAK1 kinase domain (Homo sapiens, UniProt P23458); construct: isolated recombinant JAK1 and JAK2 kinase domain; experiment: JAK enzyme assay (Caliper LabChip), JAK1; settings: 1.5 nM JAK1, ATP 25 μM, 22° C., 30 minutes; Morrison tight binding model
Sequence (P23458 875-1153 limits assumed): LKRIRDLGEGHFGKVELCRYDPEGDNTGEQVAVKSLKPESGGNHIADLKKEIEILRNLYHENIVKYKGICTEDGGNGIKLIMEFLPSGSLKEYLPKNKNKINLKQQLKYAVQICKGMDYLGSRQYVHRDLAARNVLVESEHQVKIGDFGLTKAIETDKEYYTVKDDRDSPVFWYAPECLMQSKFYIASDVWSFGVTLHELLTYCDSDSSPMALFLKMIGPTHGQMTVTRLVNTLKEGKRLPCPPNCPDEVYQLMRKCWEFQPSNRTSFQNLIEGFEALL

COMPOUND_STRING	Ki [nM]
COCCOc1ccc(COc2ccc(-c3cccn4nc(Nc5cnn(C)c5)nc34)cc2)cn1	0.63
OCC1(c2ccc(Cl)cc2)CCN(c2cccn3nc(Nc4cnn(C5CCN(Cc6ccccc6)CC5)c4)nc23)CC1	0.63
CN(C)CCCn1cc(Nc2nc3c(N4CCC(CO)(c5ccc(Cl)cc5)CC4)cccn3n2)cn1	0.56
Cn1cc(Nc2nc3c(N4CCC(CNCC(F)(F)F)(c5ccc(Cl)cc5)CC4)cccn3n2)cn1	10
CSc1ccc(C2(CC#N)CCN(c3cccn4nc(Nc5cnn(CCN6CCN(C7CCOCC7)CC6)c5)nc34)CC2)cc1	3.3
CNCCn1cc(Nc2nc3c(-c4ccc(OCc5ccc(OCCOC)nc5)cc4)cccn3n2)cn1	2.4
CNCCCn1cc(Nc2nc3c(-c4ccc(OCc5ccc(OCCOC)nc5)cc4)cccn3n2)cn1	0.74
CCCCn1cc(Nc2nc3c(N4CCC(CO)(c5ccc(Cl)cc5)CC4)cccn3n2)cn1	0.42
CN1CCN(CCCn2cc(Nc3nc4c(N5CCC(CO)(c6ccc(Cl)cc6)CC5)cccn4n3)cn2)CC1	0.55
CSc1ccc(C2(CC#N)CCN(c3cccn4nc(Nc5cnn(CCN6CCN(C)C(=O)C6)c5)nc34)CC2)cc1	4.6
OCC1(c2ccc(Cl)cc2)CCN(c2cccn3nc(Nc4cnn(C5CCNCC5)c4)nc23)CC1	0.23
CSc1ccc(C2(CO)CCN(c3cccn4nc(Nc5cnn(CCN)c5)nc34)CC2)cc1	2.9
CN1CCC(n2cc(Nc3nc4c(N5CCC(CO)(c6ccc(Cl)cc6)CC5)cccn4n3)cn2)CC1	0.27
O=C(CCC(F)(F)F)N1CC=C(c2cccn3nc(Nc4cnn(CC(F)F)c4)nc23)CC1	0.74
CSc1ccc(C2(CC#N)CCN(c3cccn4nc(Nc5cnn(CCN6CCC(N7CCOCC7)CC6)c5)nc34)CC2)cc1	2.7

====

biological target: isolated recombinant JAK2 kinase domain (Homo sapiens, UniProt O60674); construct: isolated recombinant JAK1 and JAK2 kinase domain; assay: JAK enzyme assay (Caliper LabChip), JAK2; conditions: 0.2 nM JAK2, ATP 25 μM, 22° C., 30 minutes; Morrison tight binding model
Sequence (O60674 849-1124 limits assumed): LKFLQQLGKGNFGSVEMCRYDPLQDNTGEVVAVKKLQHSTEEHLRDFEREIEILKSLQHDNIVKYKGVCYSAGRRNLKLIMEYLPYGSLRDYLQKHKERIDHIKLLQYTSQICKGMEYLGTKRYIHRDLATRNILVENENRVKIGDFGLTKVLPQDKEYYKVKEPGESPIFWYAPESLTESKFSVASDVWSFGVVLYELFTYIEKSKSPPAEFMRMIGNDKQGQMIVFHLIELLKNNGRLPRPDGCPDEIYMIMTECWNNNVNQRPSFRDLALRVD
pKi: −log10 of the molar value.
A collection of compounds and their measured pKi

COMPOUND_STRING	pKi
CSc1ccc(C2(CC#N)CCN(c3cccn4nc(Nc5cnn(CCN6CCN(C)C(=O)C6)c5)nc34)CC2)cc1	9.00
CSc1ccc(C2(CO)CCN(c3cccn4nc(Nc5cnn(CCN6CCC(N7CCOCC7)CC6)c5)nc34)CC2)cc1	9.33
CSc1ccc(C2(CC#N)CCN(c3cccn4nc(Nc5cnn(CCN6CCN(C7CCOCC7)CC6)c5)nc34)CC2)cc1	9.02
CN(C)C(=O)CN1CCC2(CC1)CN(C(=O)N1CC=C(c3cccn4nc(Nc5cnn(C)c5)nc34)CC1)C2	7.07
OCC1(c2ccc(Cl)cc2)CCN(c2cccn3nc(Nc4cnn(CCN5CCOCC5)c4)nc23)CC1	9.80
COC(=O)CNCC1(c2ccc(Cl)cc2)CCN(c2cccn3nc(Nc4cnn(C)c4)nc23)CC1	9.28
CCCCn1cc(Nc2nc3c(N4CCC(CO)(c5ccc(Cl)cc5)CC4)cccn3n2)cn1	9.51
CSc1ccc(C2(CC#N)CCN(c3cccn4nc(Nc5cnn(CCN6CCC(N7CCOCC7)CC6)c5)nc34)CC2)cc1	8.96
COCCOc1ccc(COc2ccc(-c3cccn4nc(Nc5cnn(C[C@H]6CCCN6)c5)nc34)cc2)cn1	9.32
CCc1cnn(C2(CC#N)CN(c3cccn4nc(Nc5cnn(Cc6cn(C7CCN(C8COC8)CC7)nn6)c5)nc34)C2)c1	9.24
CN1CCN(CCCn2cc(Nc3nc4c(N5CCC(CO)(c6ccc(Cl)cc6)CC5)cccn4n3)cn2)CC1	9.59
O=C(CCC(F)(F)F)N1CC=C(c2cccn3nc(Nc4cnn(CC(F)F)c4)nc23)CC1	9.06
OCCCn1cc(Nc2nc3c(N4CCC(CO)(c5ccc(Cl)cc5)CC4)cccn3n2)cn1	9.96
CNCCn1cc(Nc2nc3c(-c4ccc(OCc5ccc(OCCOC)nc5)cc4)cccn3n2)cn1	9.07
OCC1(c2ccc(Cl)cc2)CCN(c2cccn3nc(Nc4cnn(CCCN5CCOCC5)c4)nc23)CC1	9.80

====

molecular target: isolated recombinant JAK1 kinase domain (Homo sapiens, UniProt P23458); construct: isolated recombinant JAK1 and JAK2 kinase domain; assay: JAK enzyme assay (Caliper LabChip), JAK1; conditions: 1.5 nM JAK1, ATP 25 μM, 22° C., 30 minutes; Morrison tight binding model

COMPOUND_STRING	Ki / nM
Cn1cc(Nc2nc3c(N4CCC(CCN5CCOCC5)(c5ccc(Cl)cc5)CC4)cccn3n2)cn1	11
CSc1ccc(C2(CC#N)CCN(c3cccn4nc(Nc5cnn(CCN6CCN(C(C)=O)CC6)c5)nc34)CC2)cc1	2.6
OCC1(c2ccc(Cl)cc2)CCN(c2cccn3nc(Nc4cnn(CCN5CCOCC5)c4)nc23)CC1	0.52
O=C(CCC(F)(F)F)N1CC=C(c2cccn3nc(Nc4cnn(CCO)c4)nc23)CC1	0.87
CC(C)CCn1cc(Nc2nc3c(N4CCC(CO)(c5ccc(Cl)cc5)CC4)cccn3n2)cn1	0.75
Cn1cc(Nc2nc3c(N4CCC(CO)(c5ccc(Cl)cc5)CC4)cccn3n2)cn1	0.18
OCC1(c2ccc(Cl)cc2)CCN(c2cccn3nc(Nc4cnn(CCCN5CCOCC5)c4)nc23)CC1	0.33

====

target: isolated recombinant JAK2 kinase domain (Homo sapiens, UniProt O60674); construct: isolated recombinant JAK1 and JAK2 kinase domain; test: JAK enzyme assay (Caliper LabChip), JAK2; settings: 0.2 nM JAK2, ATP 25 μM, 22° C., 30 minutes; Morrison tight binding model
pKi: −log10 of the molar value. Counter-ions that a name gives are not always drawn.
A collection of compounds and their measured pKi
ASSAY_ENDPOINT: pKi

COMPOUND	ASSAY_ENDPOINT	RECORDED_MEASUREMENT
CNCCCn1cc(Nc2nc3c(-c4ccc(OCc5ccc(OCCOC)nc5)cc4)cccn3n2)cn1	pKi	9.55
Cn1cc(Nc2nc3c(N4CCC(CN)(c5ccc(Cl)cc5)CC4)cccn3n2)cn1	pKi	9.03
CSc1ccc(C2(CC#N)CCN(c3cccn4nc(Nc5cnn(CCN(C)C)c5)nc34)CC2)cc1	pKi	8.92
CSc1ccc(C2(CO)CCN(c3cccn4nc(Nc5cnn(CCN)c5)nc34)CC2)cc1	pKi	8.85
CN1CCC(n2cc(Nc3nc4c(N5CCC(CO)(c6ccc(Cl)cc6)CC5)cccn4n3)cn2)CC1	pKi	9.72
OCC1(c2ccc(Cl)cc2)CCN(c2cccn3nc(Nc4cnn(CC(F)F)c4)nc23)CC1	pKi	9.89
N#CCCN1CCC(n2cc(Nc3nc4c(N5CCC(CO)(c6ccc(Cl)cc6)CC5)cccn4n3)cn2)CC1	pKi	9.96
O=C(CCC(F)(F)F)N1CC=C(c2cccn3nc(Nc4cnn(CCO)c4)nc23)CC1	pKi	9.15
COC(=O)CN1CCC2(CC1)CN(C(=O)N1CC=C(c3cccn4nc(Nc5cnn(C)c5)nc34)CC1)C2	pKi	7.70
OCCn1cc(Nc2nc3c(N4CCC(CO)(c5ccc(Cl)cc5)CC4)cccn3n2)cn1	pKi	10.05
OCC1(c2ccc(Cl)cc2)CCN(c2cccn3nc(Nc4cnn(Cc5ccncc5)c4)nc23)CC1	pKi	9.92
Cn1cc(Nc2nc3c(N4CCC(CNCC(F)(F)F)(c5ccc(Cl)cc5)CC4)cccn3n2)cn1	pKi	8.54
CSc1ccc(C2(CC#N)CCN(c3cccn4nc(Nc5cnn(CCN6CCN(C(=O)N(C)C)CC6)c5)nc34)CC2)cc1	pKi	9.17
CN(C)CCCn1cc(Nc2nc3c(N4CCC(CO)(c5ccc(Cl)cc5)CC4)cccn3n2)cn1	pKi	9.66
Cn1cc(Nc2nc3c(N4CCC(c5ccc(Cl)cc5)(C(O)CN5CCOCC5)CC4)cccn3n2)cn1 (racemic)	pKi	9.24
OCC1(c2ccc(Cl)cc2)CCN(c2cccn3nc(Nc4cnn(C5CCNCC5)c4)nc23)CC1	pKi	9.92
Cn1cc(Nc2nc3c(N4CCC(CO)(c5ccc(Cl)cc5)CC4)cccn3n2)cn1	pKi	9.89
CSc1ccc(C2(CC#N)CCN(c3cccn4nc(Nc5cnn(CCNC6COC6)c5)nc34)CC2)cc1	pKi	9.14
COCCOc1ccc(COc2ccc(-c3cccn4nc(Nc5cnn(C)c5)nc34)cc2)cn1	pKi	9.49
OCC1(c2ccc(Cl)cc2)CCN(c2cccn3nc(Nc4cnn(C5CCN(Cc6ccccc6)CC5)c4)nc23)CC1	pKi	9.42
Cn1cc(Nc2nc3c(N4CCC(CCN5CCOCC5)(c5ccc(Cl)cc5)CC4)cccn3n2)cn1	pKi	8.46
CSc1ccc(C2(CC#N)CCN(c3cccn4nc(Nc5cnn(CCN6CCN(C(C)=O)CC6)c5)nc34)CC2)cc1	pKi	9.19
CC(C)CCn1cc(Nc2nc3c(N4CCC(CO)(c5ccc(Cl)cc5)CC4)cccn3n2)cn1	pKi	9.36
CN(C)CC(O)C1(c2ccc(Cl)cc2)CCN(c2cccn3nc(Nc4cnn(C)c4)nc23)CC1 (racemic)	pKi	8.54
COCCOc1ccc(COc2ccc(-c3cccn4nc(Nc5cnn(C6CCNCC6)c5)nc34)cc2)cn1	pKi	9.70
OCC1(c2ccc(Cl)cc2)CCN(c2cccn3nc(Nc4cnn(CC5CCNCC5)c4)nc23)CC1 [Compound 1-1, hydrochloride]	pKi	10.35
